We begin with a simple list: items and their reported DC50.
- Measured Target: BRD4 long (Homo sapiens, UniProt O60885)
- Construct: endogenous in cells; host or cells: HEK293T
- Measurement Protocol: BRD4 (long) degradation assay, Western blotting
- Format: cell-based
- Cond: first value of cell (long/short)

**Q:** Fill blank: measured DC50 of the molecule `Cc1sc2c(c1C)C(c1ccc(Cl)cc1)=N[C@@H](CC(=O)N[C@H]1C[C@@H](NC(=O)/C=C/C(=O)C(C)(C)C)C1)c1nnc(C)n1-2` is ____.
**A:** 10 to 100 nM

**Q:** Fill blank: measured DC50 of the molecule COc1ccc(C(=O)/C=C/C(=O)N[C@H]2C[C@H](NC(=O)CC3N=C(c4ccc(Cl)cc4)c4c(sc(C)c4C)-n4c(C)nnc43)C2)c(F)c1 (stereo partly drawn) is ____.
**A:** 50 nM

**Q:** Fill blank: measured DC50 of the molecule `Cc1sc2c(c1C)C(c1ccc(Cl)cc1)=N[C@@H](CC(=O)N[C@H]1C[C@H](NC(=O)/C=C/C(=O)c3ccc4c(c3)CCO4)C1)c1nnc(C)n1-2` is ____.
**A:** 10 to 100 nM

**Q:** Fill blank: measured DC50 of the molecule `COc1ccc(C(=O)/C=C/C(=O)N2CCN(C(=O)C[C@@H]3N=C(c4ccc(Cl)cc4)c4c(sc(C)c4C)-n4c(C)nnc43)CC2)c(Cl)c1` is ____.
**A:** < 10 nM

**Q:** Fill blank: measured DC50 of the molecule `COc1ccc(C(=O)/C=C/C(=O)N[C@H]2C[C@@H](NC(=O)C[C@@H]3N=C(c4ccc(Cl)cc4)c4c(sc(C)c4C)-n4c(C)nnc43)C2)cn1` is ____.
**A:** 10 to 100 nM

Note: attention shifts to another entry.
**Q:** Fill blank: measured DC50 of the molecule `COc1ccc(C(=O)/C=C/C(=O)N[C@H]2C[C@H](NC(=O)C[C@@H]3N=C(c4ccc(Cl)cc4)c4c(sc(C)c4C)-n4c(C)nnc43)C2)cn1` is ____.
**A:** 10 to 100 nM
